Please respond with reported GI50 for every item in the list.
test system: BT-549; test: NCI tumour cell line growth inhibition, 48 h
The source made the active and inactive calls. No stated cut-off is given here; in the data, active = GI50 up to about 1.1 µM and inactive = higher.

What reported GI50 corresponds to Cn1/c(=N\S(=O)(=O)c2ccccc2)[nH]c2ccccc21 on BT-549?
> 100 µM (inactive)

What reported GI50 corresponds to Cc1ccc(S[C@@H](C)[C@@](O)(C(N)=O)c2ccccc2)cc1 on BT-549?
30.1 µM (inactive)

What reported GI50 corresponds to O=C1c2cccc3cccc(c23)C2NCCCN12 (stereo not drawn) on BT-549?
> 100 µM (inactive)

###

tested on: RXF 393; assay: NCI tumour cell line growth inhibition, 48 h
The source made the active and inactive calls. No stated cut-off is given here; in the data, active = GI50 up to about 1.1 µM and inactive = higher.
Please respond with reported GI50 for every item in the list.

Need GI50 of Nc1nc(Cl)c(N)c(NCC2(CO)CC(O)C2)n1 (stereo not drawn) , thanks.
> 100 µM (inactive)

Need GI50 of CC12CCC(CC1)C(C)(C)O2 , thanks.
13.6 µM (inactive)

Need GI50 of CCC(=O)OC[n+]1ccc2c(C)c3[nH]c4ccccc4c3c(C)c2c1 , thanks.
0.552 µM (active)
